Task for the reader: assign each of the following molecules its reported inhibition.
testedTarget: Dual specificity protein phosphatase 6 (Homo sapiens)
experimentSummary: DUSP6 inhibitors restoring Erk phosphorylation by chemical complementation, primary imaging in DUSP6-transfected HeLa (AID 609);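 as to inhibition: phospho-Erk level distribution per well compared with pooled transfected vehicle control wells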
particulars: HeLa MKP-3 transfected, phospho-Erk imaging KS statistic; at 10 µM; stronger effect = higher value; cells stimulated with TPA for 15 min
Answers are plain numbers, in %.

The cases that follow already have their inhibition on record.
molecule=c1cncc(-c2nnc3sc(C4CCCCC4)nn23)c1 outcomemeasure=inhibition readoutunits=% measuredvalue=8.31
molecule="COc1cccc(N2C(=O)C(O)=C(C(C)=O)C2c2ccc(OC)c(OC)c2)c1 (stereo unspecified)" outcomemeasure=inhibition readoutunits=% measuredvalue=2.46
molecule="CCN1CC2=C(OC(N)=C(C#N)C2c2ccccc2)/C(=C\\c2ccccc2)C1 (stereo unspecified)" outcomemeasure=inhibition readoutunits=% measuredvalue=9.61

For every item in the list below, what is its measured inhibition?
1. CCOc1cc(C2Nc3ccccc3C(=O)N2c2ccccc2OC)ccc1O (stereo unspecified)
2. CC(C)(C)OC(=O)N1CC=C2C(C#N)=C(N)C(C#N)(C#N)[C@H](c3cccnc3)[C@H]2C1
3. Cc1nnc2n(-c3ccccc3)c(=O)c3c4c(sc3n12)CC(C)CC4 (stereo unspecified)
4. CN(C(=O)C(Cl)Cl)c1ccc(OC(=O)c2ccco2)cc1
5. Cn1c(=O)n(Cc2ccccc2)c(=O)c2c1nc(NCC1CCCO1)n2Cc1ccccc1 (stereo unspecified)
6. C[C@]12CCC(=O)C=C1CC[C@@H]1[C@@H]2C(=O)C[C@@]2(C)[C@H]1CC[C@]2(O)C(=O)CO
7. O=C(Nc1ncn[nH]1)c1c(Cl)ccc(Cl)c1Cl

Reply |
9.07
-0.624
16.1
15.3
-5.95
-4.44
-15

For every item in the list below, what is its measured inhibition?
1. COC(=O)/C=c1/s/c(=C(/C#N)C(=O)N2CCOCC2)n(-c2ccccc2)c1=O
2. CO[C@H]1C=CO[C@@]2(C)Oc3c(C)c(O)c4c(O)c(c(C=NN5CCN(C)CC5)c(O)c4c3C2=O)NC(=O)C(C)=CC=C[C@H](C)[C@H](O)[C@@H](C)[C@@H](O)[C@@H](C)[C@H](OC(C)=O)[C@@H]1C
3. Cc1nc2oc(C(=O)c3ccc(Br)cc3)c(N)c2c2c1COC(C)(C)C2
4. COc1ccc(C2CNC(=O)C2)cc1OC1CCCC1 (stereo unspecified)
5. CN1CCc2c(sc3c2c(=O)n(-c2ccccc2)c2nnc(SCc4ccccc4)n32)C1
6. S=C(N=Nc1ccccc1)NNc1ccccc1

Reply |
1: 1.63; 2: 13.3; 3: 24.7; 4: 3.45; 5: 3.66; 6: -2.46

----------
experimentSummary: DUSP6 inhibitors restoring Erk phosphorylation by chemical complementation, primary imaging in DUSP6-transfected HeLa (AID 609)
particulars: HeLa MKP-3 transfected, phospho-Erk imaging KS statistic; measured here: nuclear c-Myc green intensity z-score; at 10 µM; cells stimulated with TPA for 15 min
outcomeMeasure: z-score
One number for each entry.

compound=Cc1cc(C)n(Cc2cc(C)c(Cn3nc(C)cc3C)cc2C)n1 outcomemeasure=z-score measuredvalue=1.3

For every item in the list below, what is its measured z-score?
1. CCOC(=O)C1CCN(c2nc3ccccc3nc2C(C#N)C(=O)OCCOC)CC1 (stereo not given)
2. O=C(c1ccccc1)C(CCC(CN1CCOCC1)C(=O)c1ccccc1)CN1CCOCC1 (stereo not given)
3. O=C1C(=O)N(CCN2CCOCC2)C(c2ccccn2)/C1=C(/O)c1ccc(F)cc1 (stereo not given)
4. CCOc1cc2nc(-c3ccc(OC)c(OC)c3)nc(N3CCOCC3)c2cc1OC

Reply |
[0.396, -0.626, 0.443, -1.76]

For every item in the list below, what is its measured z-score?
1. CCCCc1c(O)nc(SCCN(C)C)n(-c2ccccc2)c1=O
2. CC(=O)Nc1n[nH]c(S(=O)(=O)Cc2ccc(Cl)cc2Cl)n1
3. CCN(CC)C(=O)CSC1=C(C#N)C(c2ccco2)C(C(=O)OCCOC)=C(C)N1 (stereo not given)
4. Cc1ccc(OCc2nnc(NC(=O)c3ccco3)s2)c(C)c1

Reply |
2.21
-0.511
-0.0131
-0.603

For every item in the list below, what is its measured z-score?
1. O=C(c1nsnc1-c1ccccc1O)N1CCCCC1
2. COC(=O)CSc1ncnc2c1sc1nc(-c3ccco3)c3c(c12)CC(C)(C)OC3
3. Cc1cc(C)n(CC(=O)n2c3c(c4ccccc42)CCCC3)n1
4. Cc1nc(-c2c(-c3ccc(O)cc3O)noc2C(F)(F)F)cs1
5. Cc1nnc(SCC2=C(C(=O)O)N3C(=O)[C@@H](NC(=O)Cn4cnnn4)[C@H]3SC2)s1

Reply |
1. 0.0172
2. 0.288
3. 1.41
4. -0.387
5. 0.639

For every item in the list below, what is its measured z-score?
1. CC(=O)OCC(=O)[C@@]12OC3(CCCC3)O[C@@H]1C[C@H]1[C@@H]3CCC4=CC(=O)C=C[C@]4(C)[C@@]3(F)[C@@H](O)C[C@@]12C
2. COC(=O)C1=C(C)N=C2SC(C)C(=O)N2C1c1cccc(F)c1 (stereo not given)

Reply |
0.328
-0.181
